Values were extracted from patent US20240360175A1.

For each of the molecules below, state its EC50.
# Tested system: human orexin type 1 receptor (hOX1R) (Homo sapiens, UniProt O43613)
# Construct: expressed in transfected cells
# Sequence (O43613 whole entry): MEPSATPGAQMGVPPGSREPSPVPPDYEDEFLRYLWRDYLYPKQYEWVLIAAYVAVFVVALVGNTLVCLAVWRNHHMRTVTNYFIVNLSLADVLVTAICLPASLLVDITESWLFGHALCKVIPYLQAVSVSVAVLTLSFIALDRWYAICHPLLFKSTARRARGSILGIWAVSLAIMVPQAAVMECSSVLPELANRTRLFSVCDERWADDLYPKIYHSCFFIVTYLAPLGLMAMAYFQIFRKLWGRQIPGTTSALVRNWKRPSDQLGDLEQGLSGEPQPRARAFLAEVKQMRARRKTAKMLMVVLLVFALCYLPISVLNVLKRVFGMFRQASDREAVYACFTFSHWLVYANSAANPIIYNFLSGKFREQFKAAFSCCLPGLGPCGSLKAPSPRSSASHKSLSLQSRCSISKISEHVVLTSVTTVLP
# Assay summary: Measurement of orexin type 1 receptor agonist activity (FLIPR TETRA intracellular Ca2+ fluorescence)
# Assay type: cell-based
# Run parameters: CHO cells expressing hOX1R; agonist activity, Ca2+ fluorescence; read-out: hOX1 pEC50 (converted)
Numbered stars: 1 amine (or outer) side, 2 acyl side, 3 side chain; on linkers, the order of the positions; unused ones are H or OH. Square brackets hold non-standard residues; d marks the D form. Peptide text beside a SMILES is read from it. X7 = O=C([C@@H](N[*:1])c1cccc2ccccc12)[*:2]; hArg(Et2) = CCN=C(NCC)NCCCC[C@H](N)C(=O)O; X1 = O=C(CN(CCc1ccc2ccccc2c1)[*:1])[*:2]; Gly(NCH2CH2Ph) = O=C(O)CNCCc1ccccc1; PEG6 = NCCOCCOCCOCCOCCOCCOCCC(=O)O; Hyp = O=C(O)[C@@H]1C[C@@H](O)CN1; NMeN = CN[C@@H](CC(N)=O)C(=O)O; Aoc(2) = CCCCCC[C@H](N)C(=O)O; Ahp(2) = CCCCC[C@H](N)C(=O)O; Phg = N[C@H](C(=O)O)c1ccccc1

Molecule	Tested system	Observation type	Meas value
CCCCC[C@H](NC(=O)[C@@H](NC(=O)[C@H](CC(C)C)NC(=O)[C@@H](NC(=O)CNC(=O)[C@@H](NC(=O)[C@H](C)NC(=O)[C@@H]1C[C@@H](O)CN1C(=O)[C@H](CC(N)=O)N(C)C(=O)CN(CCc1ccccc1)C(=O)[C@H](CCCNC(=N)N)NC(=O)CCOCCOCCOCCOCCOCCOCCN)c1ccccc1)[C@@H](C)CC)[C@@H](C)O)C(N)=O [Peptide 30] (H-[PEG6]R[Gly(NCH2CH2Ph)][NMeN][Hyp]A[Phg]GILT[Ahp(2)]-NH2)	human orexin type 1 receptor (hOX1R) (Homo sapiens, UniProt O43613)	EC50	> 10 nM
CCCCCC[C@H](NC(=O)[C@@H](NC(=O)[C@H](CC(C)C)NC(=O)[C@@H](NC(=O)CNC(=O)[C@@H](NC(=O)[C@H](C)NC(=O)[C@H](Cc1c[nH]cn1)NC(=O)[C@H](CC(N)=O)NC(=O)CN(CCc1ccc2ccccc2c1)C(=O)[C@@H](N)CCCCNC(=NCC)NCC)c1ccccc1)[C@@H](C)CC)[C@@H](C)O)C(N)=O [Peptide 11] (H-[hArg(Et2)][X1]NHA[Phg]GILT[Aoc(2)]-NH2; N-terminus assumed)	human orexin type 1 receptor (hOX1R) (Homo sapiens, UniProt O43613)	EC50	1 to 10 nM

Kindly consider the entry below.
## Task Could you share which EC50 value was measured for CCCCCC[C@H](NC(=O)[C@@H](NC(=O)[C@H](CC(C)C)NC(=O)[C@@H](NC(=O)CNC(=O)[C@@H](NC(=O)[C@H](C)NC(=O)[C@@H]1C[C@@H](O)CN1C(=O)[C@H](CC(N)=O)NC(=O)CN(CCc1ccccc1)C(=O)[C@@H](N)CCCCNC(=NCC)NCC)c1cccc2ccccc12)[C@@H](C)CC)[C@@H](C)O)C(N)=O [Peptide 9] (H-[hArg(Et2)][Gly(NCH2CH2Ph)]N[Hyp]A[X7]GILT[Aoc(2)]-NH2; N-terminus assumed) ?
## Result > 10 nM
